Cited source: patent US20220162191A1

The reader will find reported EC50 values listed item by item below.
- Target Or Test System: UniProtKB Q16552
- Sequence (Q16552 24-155): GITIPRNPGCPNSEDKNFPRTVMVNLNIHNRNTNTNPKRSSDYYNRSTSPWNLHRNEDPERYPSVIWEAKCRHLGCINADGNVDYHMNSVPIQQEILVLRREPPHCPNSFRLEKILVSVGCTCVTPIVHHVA
- Sequence (Q16552 24-155): as above
- Protocol Text: IL-8 release assay in human epithelial keratinocytes adult (HEKa)
- Measurement Setup: 3 ng/ml human IL-17AA + 10 ng/ml human TNFalpha, 68-72 h, IL-8 by HTRF, read-out: Rel EC50 L-8 release assay
Quantity Measured: EC50

>>> test_result("CC(C)n1cc(-c2ccc(Cl)c(C[C@H](NC(=O)[C@H]3CC3(F)F)C(=O)Nc3ccc(-c4nncn4C)cc3)c2)ccc1=O")
"> 1000 nM"
>>> test_result("Cn1cncc1-c1ccc(NC(=O)[C@H](Cc2cc(-c3ccnc(C(C)(O)C4CC4)c3)ccc2Cl)NC(=O)c2ccnn2C)cc1 (stereo partly drawn)")
"< 100 nM"
>>> test_result("Cc1nocc1C(=O)N[C@@H](Cc1cc(-c2ccnc(C(O)C3CC3)c2)ccc1Cl)C(=O)Nc1ccc(-n2ccnc2C)cc1 (stereo partly drawn)")
"100 to 1000 nM"
